Target: kinase panel containing either 359 or 386 distinct kinases
Test: Selectivity score S10 from competition binding against a panel of kinases
Details: compounds at 10 μM; panel of 359 distinct kinases
measurement.type: Kinase specificty: S(10)-359 panel

Past entries and their recorded results:
For kinase panel containing either 359 or 386 distinct kinases, give the measured Kinase specificty: S(10)-359 panel of the entry O=C(Nc1ccc(-c2cnc(NCCN3CCOCC3)nc2)cc1)Nc1cc(C2(C(F)(F)F)CC2)on1 B (0.1<B≦0.2 nM)

Report its Kinase specificty: S(10)-359 panel with kinase panel containing either 359 or 386 distinct kinases as the test system: CC(C)(C)c1cc(NC(=O)Nc2ccc(-c3cnc4c(c3)COCCN4)cc2)no1 B (0.1<B≦0.2 nM)

Provide Kinase specificty: S(10)-359 panel, recorded with kinase panel containing either 359 or 386 distinct kinases, of Cc1ccc(F)c(NC(=O)Nc2ccc(-c3cnc(NCCN4CCOCC4)nc3)cc2)c1 A (A≦0.1)

GET Kinase specificty: S(10)-359 panel where system = kinase panel containing either 359 or 386 distinct kinases and item = CC(C)(C)c1cc(NC(=O)Nc2ccc(-c3cnc(NC4CC4)nc3)cn2)no1 B (0.1<B≦0.2 nM)

Specify the recorded Kinase specificty: S(10)-359 panel for CC(C)(C)c1cc(NC(=O)Nc2ccc(-c3cnc(N)c(CN4CCOCC4)c3)cc2)no1 , system: kinase panel containing either 359 or 386 distinct kinases. B (0.1<B≦0.2 nM)

New cases:
State Kinase specificty: S(10)-359 panel on kinase panel containing either 359 or 386 distinct kinases. Entry: Cc1cc(N)ncc1-c1ccc(NC(=O)Nc2cc(C(C)(C)C)on2)cc1 A (A≦0.1)

State Kinase specificty: S(10)-359 panel (kinase panel containing either 359 or 386 distinct kinases) of CC(C)(C)c1cc(NC(=O)Nc2ccc(-c3cnc4c(c3)OCC(CCO)N4)cc2)no1 (stereo not drawn) . B (0.1<B≦0.2 nM)

Retrieve Kinase specificty: S(10)-359 panel on kinase panel containing either 359 or 386 distinct kinases; query O=C(Nc1ccc(-c2cnc(NCCN3CCOCC3)nc2)cc1)Nc1cccc(C(F)(F)F)c1 A (A≦0.1)

// output Kinase specificty: S(10)-359 panel; input CC(C)(C)c1cc(NC(=O)Nc2ccc(-c3ccc(N)nc3)cn2)no1 ; system kinase panel containing either 359 or 386 distinct kinases A (A≦0.1)

* * *

Target: FLT3 kinase (Homo sapiens, UniProt P36888)
Sequence (P36888 27-993): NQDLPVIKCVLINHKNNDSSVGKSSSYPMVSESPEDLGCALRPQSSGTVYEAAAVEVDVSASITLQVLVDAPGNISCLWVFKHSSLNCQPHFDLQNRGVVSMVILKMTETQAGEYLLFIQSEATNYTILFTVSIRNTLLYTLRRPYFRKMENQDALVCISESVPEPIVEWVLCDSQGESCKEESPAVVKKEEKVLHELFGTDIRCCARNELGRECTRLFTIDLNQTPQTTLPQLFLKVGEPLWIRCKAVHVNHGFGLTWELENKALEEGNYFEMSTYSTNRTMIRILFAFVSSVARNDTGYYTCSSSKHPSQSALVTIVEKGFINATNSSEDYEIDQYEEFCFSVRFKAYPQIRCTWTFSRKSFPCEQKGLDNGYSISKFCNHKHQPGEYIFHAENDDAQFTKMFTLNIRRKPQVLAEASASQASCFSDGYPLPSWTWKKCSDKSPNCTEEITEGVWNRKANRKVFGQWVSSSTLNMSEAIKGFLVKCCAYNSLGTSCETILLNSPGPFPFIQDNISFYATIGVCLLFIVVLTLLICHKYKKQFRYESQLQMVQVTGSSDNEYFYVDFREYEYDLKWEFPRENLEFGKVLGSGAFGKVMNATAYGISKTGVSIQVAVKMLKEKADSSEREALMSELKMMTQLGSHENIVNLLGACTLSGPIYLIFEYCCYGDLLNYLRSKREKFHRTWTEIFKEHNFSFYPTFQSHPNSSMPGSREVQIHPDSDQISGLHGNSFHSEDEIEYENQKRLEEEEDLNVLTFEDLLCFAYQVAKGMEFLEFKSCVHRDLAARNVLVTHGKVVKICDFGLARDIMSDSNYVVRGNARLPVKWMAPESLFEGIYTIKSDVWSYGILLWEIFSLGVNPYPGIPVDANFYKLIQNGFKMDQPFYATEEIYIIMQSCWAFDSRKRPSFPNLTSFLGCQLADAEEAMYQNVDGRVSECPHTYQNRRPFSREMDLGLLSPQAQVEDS
Listing of entries alongside the reported Kd.

Consider the reported Kd for these molecules:
Determine reported Kd for COc1cc(-c2ccc(CC(=O)Nc3cc(C(C)(C)C)on3)cc2)cnc1N.CS(=O)(=O)O [Example 136, methanesulfonate] ; test system: FLT3 kinase (Homo sapiens, UniProt P36888). ≤ 1 nM

Report value: Kd, system: FLT3 kinase (Homo sapiens, UniProt P36888), molecule: COc1cc(N)ncc1-c1ccc(CC(=O)Nc2cc(C(C)(C)C)on2)cc1 ≤ 1 nM

State measured Kd of the molecule CC(C)(C)c1cc(NC(=O)Nc2ccc(-c3cnc(NC4CC4)nc3)cn2)no1 with FLT3 kinase (Homo sapiens, UniProt P36888). ≤ 1 nM

***
Please indicate recorded Kd of CC(C)(CO)c1cc(NC(=O)Nc2ccc(-c3ccc(N)nc3)cc2)on1 [Example 81, methanesulfonate] measured with FLT3 kinase (Homo sapiens, UniProt P36888). 1 to 10 nM

* * *

Biological target: kinase panel containing either 359 or 386 distinct kinases
Assay: Selectivity score S10 from competition binding against a panel of kinases
Conditions: compounds at 10 μM; panel of 386 distinct kinases
measurement.type: Kinase specificty: S(10)-386 panel

Look up and report measured Kinase specificty: S(10)-386 panel (kinase panel containing either 359 or 386 distinct kinases) for the following molecule: CC(C)(C)c1cc(NC(=O)Cc2ccc(-c3cnc4[nH]c(=O)[nH]c4c3)cc2)no1 B (0.1<B≦0.2 nM)

State Kinase specificty: S(10)-386 panel on kinase panel containing either 359 or 386 distinct kinases. Entry: CC(C)(C)c1cc(NC(=O)Cc2ccc(-c3ccc(NCCS(C)(=O)=O)nc3)cc2)no1.CS(=O)(=O)O B (0.1<B≦0.2 nM)

System kinase panel containing either 359 or 386 distinct kinases. Read-out Kinase specificty: S(10)-386 panel. Item CC(C)(C)c1cc(NC(=O)Cc2ccc(-c3cnc(N)c(C(F)(F)F)c3)cc2)no1.CS(=O)(=O)O . Report value. B (0.1<B≦0.2 nM)

* * *

Reported Kd is given for each of the following molecules.
Target: FLT3 kinase (Homo sapiens)

# annotated cases, reported Kd shown
Give Kd for CN1CCCC1CCNc1ccc(-c2ccc(NC(=O)Nc3cc(C(C)(C)C)on3)cc2)cn1 (stereo not drawn) tested on FLT3 kinase (Homo sapiens). ≤ 1 nM

Fill in: Kd on FLT3 kinase (Homo sapiens), entry CC(C(=O)Nc1cc(C(C)(C)C)on1)c1ccc(-c2ccc(N)nc2)cc1 (racemic) 1 to 10 nM

Please tell me the measured Kd for O=C(Nc1ccc(-c2cnc(NCCN3CCOCC3)nc2)cc1)Nc1cccc(C(F)(F)F)c1 ; system: FLT3 kinase (Homo sapiens). ≤ 1 nM

---
Recall the reported Kd of CC(C)(C)c1cc(NC(=O)Cc2ccc(-c3ccc(NCCN4CCOCC4)nc3)cc2)no1.CS(=O)(=O)O [Example 105, methanesulfonate] when tested on FLT3 kinase (Homo sapiens). ≤ 1 nM

Give measured Kd for CC(C)(C)c1cc(NC(=O)Cc2ccc(-c3cnc4[nH]c(=O)oc4c3)cc2)no1 (FLT3 kinase (Homo sapiens)). 1 to 10 nM

Report value only: Kd, FLT3 kinase (Homo sapiens), CC1(c2cc(NC(=O)Cc3ccc(-c4ccc(N)nc4F)cc3)no2)COC1 ≤ 1 nM

Give FLT3 kinase (Homo sapiens) Kd for the following molecule: CC1(c2cc(NC(=O)Cc3ccc(-c4cnc(N)c(F)c4)cc3)no2)COC1.CS(=O)(=O)O [Example 146, methanesulfonate] ≤ 1 nM

# return Kd of CC(C)(C)c1cc(NC(=O)Cc2ccc(-c3cnc(N)c(Cl)c3)cc2)no1.CS(=O)(=O)O [Example 115, methanesulfonate] (system: FLT3 kinase (Homo sapiens)) 1 to 10 nM

Enter recorded Kd with FLT3 kinase (Homo sapiens) for CC(C)(C)c1cc(NC(=O)Nc2ccc(-c3cnc(N)c(COCCO)c3)cc2)no1 here. ≤ 1 nM

* * *

Biological target: kinase panel containing either 359 or 386 distinct kinases
Experiment: Selectivity score S10 from competition binding against a panel of kinases
Settings: compounds at 10 μM; panel of 386 distinct kinases
measurement.type: Kinase specificty: S(10)-386 panel

// fetch Kinase specificty: S(10)-386 panel for CC(=O)O.Nc1ccc(-c2ccc(CC(=O)Nc3cc(C4(CF)CC4)on3)cc2)cn1 ; system: kinase panel containing either 359 or 386 distinct kinases A (A≦0.1)

Check kinase panel containing either 359 or 386 distinct kinases data and give Kinase specificty: S(10)-386 panel for CC(C)(c1cc(NC(=O)Cc2ccc(-c3ccc(N)nc3F)cc2)no1)C(F)(F)F.CS(=O)(=O)O . A (A≦0.1)

Provide measured Kinase specificty: S(10)-386 panel on kinase panel containing either 359 or 386 distinct kinases for CC(C)(C)c1cc(NC(=O)Cc2ccc(-c3ccc(N)nc3)cc2)no1 please. A (A≦0.1)
